Target: HCK (human)
Test: radiometric filter-binding kinase assay, Kinase HotSpot
Details: compound 0.5 µM; ATP 10 µM
Each entry below lists one item and its recorded residual activity value.
Your answer should be a plain number; it is taken to be in %.

IN: Any idea what its residual activity is? The compound is COc1ccc(OC)c2c(=S)c3ccccc3[nH]c12
OUT: 95.8

IN: Request: O=C1Nc2ccccc2/C1=C1\Nc2ccccc2\C1=N/O
OUT: 60.2

---

Target: CSK (human) (UniProt P41240)
Sequence (P41240 whole entry, looked up): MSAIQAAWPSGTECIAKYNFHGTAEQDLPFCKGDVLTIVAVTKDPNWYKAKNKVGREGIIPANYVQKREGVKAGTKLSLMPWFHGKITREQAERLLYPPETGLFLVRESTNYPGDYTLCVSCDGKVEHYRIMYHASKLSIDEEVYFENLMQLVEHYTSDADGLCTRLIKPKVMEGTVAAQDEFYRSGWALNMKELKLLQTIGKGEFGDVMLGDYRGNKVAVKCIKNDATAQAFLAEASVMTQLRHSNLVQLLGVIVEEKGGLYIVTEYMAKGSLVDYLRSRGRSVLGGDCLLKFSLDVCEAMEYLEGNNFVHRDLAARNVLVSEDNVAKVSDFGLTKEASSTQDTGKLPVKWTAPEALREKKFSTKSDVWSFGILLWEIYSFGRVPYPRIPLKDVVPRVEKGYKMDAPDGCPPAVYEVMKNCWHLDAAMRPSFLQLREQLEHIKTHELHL
Test: radiometric filter-binding kinase assay, Kinase HotSpot
Conditions: compound 0.5 µM; ATP 10 µM
observable: residual activity (%)
Your answer should be a plain number; it is taken to be in %.

Below are worked cases with known answers.
line-notation	residual activity, %
CC(=O)O/N=C1\C(=C2\C(=O)Nc3cc(Br)ccc32)Nc2ccccc21	75.5
COc1cc2ncc(-c3ccccc3)nc2cc1OC	107
Cn1sc(=O)n(Cc2ccccc2)c1=O	101

IN: Any idea what its residual activity is? The compound is Nc1nnc2[nH]c3ccccc3nc1-2
OUT: 100

IN: Request: O=C(CCCc1ccc(-c2ccccc2F)cc1)Nc1ccc(O)cc1
OUT: 88

---

Each entry below lists one item and its recorded residual activity value.
Target: HIPK1 (human) (UniProt Q86Z02)
Sequence (Q86Z02 whole entry, looked up): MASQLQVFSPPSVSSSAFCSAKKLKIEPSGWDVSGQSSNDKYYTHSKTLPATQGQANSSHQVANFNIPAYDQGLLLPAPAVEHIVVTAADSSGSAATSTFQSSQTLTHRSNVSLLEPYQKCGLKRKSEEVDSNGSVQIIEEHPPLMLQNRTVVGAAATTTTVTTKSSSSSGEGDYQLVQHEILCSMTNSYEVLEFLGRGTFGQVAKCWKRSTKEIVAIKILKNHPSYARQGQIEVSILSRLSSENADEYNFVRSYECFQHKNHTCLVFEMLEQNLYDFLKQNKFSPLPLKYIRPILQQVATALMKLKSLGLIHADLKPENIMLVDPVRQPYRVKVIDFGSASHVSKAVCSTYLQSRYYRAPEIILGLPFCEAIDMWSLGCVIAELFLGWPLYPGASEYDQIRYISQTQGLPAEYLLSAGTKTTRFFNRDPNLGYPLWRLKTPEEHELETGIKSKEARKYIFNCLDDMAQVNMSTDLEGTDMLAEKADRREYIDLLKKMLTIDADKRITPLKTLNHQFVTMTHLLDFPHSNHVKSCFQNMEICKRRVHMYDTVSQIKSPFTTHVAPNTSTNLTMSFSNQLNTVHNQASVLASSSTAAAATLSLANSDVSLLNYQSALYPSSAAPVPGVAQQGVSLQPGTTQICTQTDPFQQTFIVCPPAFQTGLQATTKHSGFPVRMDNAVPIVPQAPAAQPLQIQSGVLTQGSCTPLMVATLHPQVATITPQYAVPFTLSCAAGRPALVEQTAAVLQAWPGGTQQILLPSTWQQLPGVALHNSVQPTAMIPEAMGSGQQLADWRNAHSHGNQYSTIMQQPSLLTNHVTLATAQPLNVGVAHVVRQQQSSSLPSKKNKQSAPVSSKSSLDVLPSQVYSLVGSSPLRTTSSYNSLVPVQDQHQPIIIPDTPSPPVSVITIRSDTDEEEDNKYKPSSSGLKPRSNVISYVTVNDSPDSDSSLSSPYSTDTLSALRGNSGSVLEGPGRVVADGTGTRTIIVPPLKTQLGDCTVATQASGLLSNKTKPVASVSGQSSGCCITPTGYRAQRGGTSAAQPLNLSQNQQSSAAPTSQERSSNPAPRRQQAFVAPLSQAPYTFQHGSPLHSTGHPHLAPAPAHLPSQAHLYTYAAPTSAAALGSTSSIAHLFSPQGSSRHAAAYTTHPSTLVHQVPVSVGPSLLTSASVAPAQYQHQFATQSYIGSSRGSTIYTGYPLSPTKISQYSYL
Assay: radiometric filter-binding kinase assay, Kinase HotSpot
Conditions: compound 0.5 µM; ATP 10 µM
Your answer should be a plain number; it is taken to be in %.

Below are worked cases with known answers.
line-notation	observable	recorded-number
O=C(Nc1cccc(Nc2cc(Nc3cccc(C(F)(F)F)c3)ncn2)c1)C1CC1	residual activity	99.7
Cn1nc2c3c(cccc31)C(=O)c1ccccc1-2	residual activity	112

Could you now consider this next compound?
IN: Any idea what its residual activity is? The compound is O=C1NC(=O)/C(=C\c2ccc3nccnc3c2)S1
OUT: 104

---

Molecular target: LIMK1 (human) (UniProt P53667)
Sequence (P53667 whole entry, looked up): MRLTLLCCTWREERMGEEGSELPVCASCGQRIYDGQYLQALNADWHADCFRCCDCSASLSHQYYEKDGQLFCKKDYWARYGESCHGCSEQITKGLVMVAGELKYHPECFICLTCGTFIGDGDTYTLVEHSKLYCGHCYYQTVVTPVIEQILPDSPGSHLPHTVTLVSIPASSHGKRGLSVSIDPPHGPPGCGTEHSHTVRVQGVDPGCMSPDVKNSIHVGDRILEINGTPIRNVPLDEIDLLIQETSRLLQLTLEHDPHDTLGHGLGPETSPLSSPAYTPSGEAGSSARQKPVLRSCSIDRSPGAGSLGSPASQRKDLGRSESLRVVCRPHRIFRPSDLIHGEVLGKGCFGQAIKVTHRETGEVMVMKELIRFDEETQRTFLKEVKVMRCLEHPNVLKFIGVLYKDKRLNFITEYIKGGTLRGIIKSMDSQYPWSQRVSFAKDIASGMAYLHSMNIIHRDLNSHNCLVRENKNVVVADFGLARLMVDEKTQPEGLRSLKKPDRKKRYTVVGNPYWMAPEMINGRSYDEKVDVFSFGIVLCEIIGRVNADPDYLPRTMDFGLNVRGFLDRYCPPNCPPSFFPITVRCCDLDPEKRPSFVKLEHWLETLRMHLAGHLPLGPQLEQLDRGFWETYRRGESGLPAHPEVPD
Experiment: radiometric filter-binding kinase assay, Kinase HotSpot
Conditions: compound 0.5 µM; ATP 10 µM
Each entry below lists one item and its recorded residual activity value.
Your answer should be a plain number; it is taken to be in %.

Below are worked cases with known answers.
line-notation	residual activity [%]
Cn1cnc2cc3c(Nc4cccc(Br)c4)ncnc3cc21	99
CN(C)C[C@H]1CCn2c(c(C3=C(c4cn(C)c5ccccc45)C(=O)NC3=O)c3ccccc32)C1	89.4
Nc1nnc2[nH]c3ccccc3nc1-2	105
CCN(CC)CCCCN1c2ccccc2Oc2ccc(Cl)cc21	94.3
Cn1nc2c3c(cccc31)C(=O)c1ccccc1-2	97.1

IN: Any idea what its residual activity is? The compound is COc1cc2ncnc(N3CCN(C(=O)Nc4ccc(Oc5ccccc5)cc4)CC3)c2cc1OC
OUT: 69.8

---

Biological target: UniProt:P78362
Sequence (P78362 whole entry, looked up): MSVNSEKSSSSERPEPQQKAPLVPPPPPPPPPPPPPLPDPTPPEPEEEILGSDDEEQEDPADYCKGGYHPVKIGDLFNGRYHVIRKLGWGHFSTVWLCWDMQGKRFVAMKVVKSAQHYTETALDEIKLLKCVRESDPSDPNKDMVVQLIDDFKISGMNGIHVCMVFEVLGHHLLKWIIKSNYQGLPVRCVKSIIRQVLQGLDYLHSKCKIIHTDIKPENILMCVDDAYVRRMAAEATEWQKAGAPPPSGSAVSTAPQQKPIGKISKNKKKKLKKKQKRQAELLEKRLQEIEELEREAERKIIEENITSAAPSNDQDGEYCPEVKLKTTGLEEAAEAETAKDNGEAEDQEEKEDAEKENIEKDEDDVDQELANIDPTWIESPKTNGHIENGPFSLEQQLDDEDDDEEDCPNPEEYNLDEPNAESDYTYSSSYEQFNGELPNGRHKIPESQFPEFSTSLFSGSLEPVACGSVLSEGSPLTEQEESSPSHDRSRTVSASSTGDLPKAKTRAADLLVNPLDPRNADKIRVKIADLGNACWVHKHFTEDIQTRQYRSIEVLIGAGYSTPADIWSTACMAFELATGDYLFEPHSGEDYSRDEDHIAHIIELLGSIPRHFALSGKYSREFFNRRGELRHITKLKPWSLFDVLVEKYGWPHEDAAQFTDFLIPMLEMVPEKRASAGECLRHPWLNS
Test: radiometric filter-binding kinase assay, Kinase HotSpot
Settings: compound 0.5 µM; ATP 10 µM
Each entry below lists one item and its recorded residual activity value.
Your answer should be a plain number; it is taken to be in %.

Below are worked cases with known answers.
molecule	residual activity, %
COc1cc2ncc(-c3ccccc3)nc2cc1OC	84.4
O=C1Nc2ccccc2/C1=C1/Nc2ccccc2/C1=N\OCCC(O)CO (stereo not given)	86.5
O=C(O)/C=C/c1cc(Br)c(Br)c(Br)c1Br	62

IN: Notebook: pull reported residual activity for UniProt:P78362, entry O=C1Nc2ccccc2/C1=C1\Nc2ccccc2\C1=N/O
OUT: 91.3

IN: Request: Cn1sc(=O)n(Cc2ccccc2)c1=O
OUT: 98.1

IN: Request: O=C(CCCc1ccc(-c2ccccc2F)cc1)Nc1ccc(O)cc1
OUT: 94.3

IN: Request: Nc1nccc(-c2c(-c3ccc(F)cc3)ncn2C2CCNCC2)n1
OUT: 96.4

IN: Request: Nc1nnc2[nH]c3ccccc3nc1-2
OUT: 95.9

IN: Request: CCN(CC)CCCCN1c2ccccc2Oc2ccc(Cl)cc21
OUT: 109

IN: Request: CN([C@@H](Cc1ccc(OS(=O)(=O)c2cccc3cnccc23)cc1)C(=O)N1CCN(c2ccccc2)CC1)S(=O)(=O)c1cccc2cnccc12
OUT: 99.4

---

Each entry below lists one item and its recorded residual activity value.
Target: FER (human) (UniProt P16591)
Sequence (P16591 whole entry, looked up): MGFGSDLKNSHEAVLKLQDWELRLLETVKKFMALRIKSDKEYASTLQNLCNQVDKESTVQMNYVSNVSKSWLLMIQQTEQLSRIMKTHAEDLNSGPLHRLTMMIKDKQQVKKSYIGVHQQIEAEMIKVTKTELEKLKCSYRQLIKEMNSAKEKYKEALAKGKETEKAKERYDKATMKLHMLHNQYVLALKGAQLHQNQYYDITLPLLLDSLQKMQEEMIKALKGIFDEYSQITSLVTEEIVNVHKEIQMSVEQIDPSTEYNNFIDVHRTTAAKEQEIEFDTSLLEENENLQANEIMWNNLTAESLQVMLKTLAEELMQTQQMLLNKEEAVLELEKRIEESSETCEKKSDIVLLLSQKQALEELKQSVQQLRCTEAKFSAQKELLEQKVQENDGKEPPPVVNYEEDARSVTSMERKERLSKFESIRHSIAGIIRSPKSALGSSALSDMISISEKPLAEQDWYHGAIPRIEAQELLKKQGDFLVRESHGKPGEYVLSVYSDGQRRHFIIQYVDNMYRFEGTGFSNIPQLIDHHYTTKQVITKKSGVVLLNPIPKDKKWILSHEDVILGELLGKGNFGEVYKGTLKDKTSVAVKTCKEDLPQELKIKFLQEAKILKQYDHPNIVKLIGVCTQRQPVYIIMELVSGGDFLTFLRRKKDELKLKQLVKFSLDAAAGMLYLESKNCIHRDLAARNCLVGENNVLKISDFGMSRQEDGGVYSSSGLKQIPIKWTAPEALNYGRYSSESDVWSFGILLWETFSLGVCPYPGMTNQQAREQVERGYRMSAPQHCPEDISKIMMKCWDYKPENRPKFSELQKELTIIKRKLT
Assay: radiometric filter-binding kinase assay, Kinase HotSpot
Conditions: compound 0.5 µM; ATP 10 µM
Your answer should be a plain number; it is taken to be in %.

compound	residual activity [%]
CCN(CC)CCCCN1c2ccccc2Oc2ccc(Cl)cc21	102

IN: Any idea what its residual activity is? The compound is O=C1Cc2c([nH]c3ccc(Br)cc23)-c2ccccc2N1
OUT: 89.7

IN: Request: Oc1ccc(Nc2nc(-c3ccc(Cl)cc3)cs2)cc1
OUT: 90.3

---

Molecular target: SRPK2 (human)
Test: radiometric filter-binding kinase assay, Kinase HotSpot
Details: compound 0.5 µM; ATP 10 µM
observable: residual activity (%)
Your answer should be a plain number; it is taken to be in %.

Below are worked cases with known answers.
line-notation	residual activity [%]
COc1ccc(OC)c2c(=S)c3ccccc3[nH]c12	95.1
CCn1cnc2c(Nc3cccc(Cl)c3)nc(N[C@@H]3CCCC[C@@H]3N)nc21	80.7
O=C1NC(=O)C(c2cn(CCCO)c3ncccc23)=C1c1cnccn1	97.9
Cn1cnc2cc3c(Nc4cccc(Br)c4)ncnc3cc21	97.1
COc1ccc(CNC(=O)Nc2ncc([N+](=O)[O-])s2)cc1	99.6

Could you now consider this next compound?
IN: Notebook: pull reported residual activity for SRPK2 (human), entry CC(C)[C@H](CO)Nc1nc(Nc2cc(N)cc(Cl)c2)c2ncn(C(C)C)c2n1
OUT: 31

---

Each entry below lists one item and its recorded residual activity value.
Molecular target: STK4 (human)
Test: radiometric filter-binding kinase assay, Kinase HotSpot
Settings: compound 0.5 µM; ATP 10 µM
Your answer should be a plain number; it is taken to be in %.

compound	tgt	recorded-number
COc1ccc(CNC(=O)Nc2ncc([N+](=O)[O-])s2)cc1	STK4 (human)	99.8

IN: Any idea what its residual activity is? The compound is O=C1Cc2c([nH]c3ccc(Br)cc23)-c2ccccc2N1
OUT: 81.8

IN: Request: Cc1nc2cc3nc(-c4cccs4)cnc3cc2n1C
OUT: 97.4

IN: Request: Oc1ccc(Nc2nc(-c3ccc(Cl)cc3)cs2)cc1
OUT: 106

IN: Request: CN([C@@H](Cc1ccc(OS(=O)(=O)c2cccc3cnccc23)cc1)C(=O)N1CCN(c2ccccc2)CC1)S(=O)(=O)c1cccc2cnccc12
OUT: 96.8

IN: Request: O=C(Nc1cccc(Nc2cc(Nc3cccc(C(F)(F)F)c3)ncn2)c1)C1CC1
OUT: 99

---

Molecular target: UniProtKB Q9H422
Sequence (Q9H422 whole entry, looked up): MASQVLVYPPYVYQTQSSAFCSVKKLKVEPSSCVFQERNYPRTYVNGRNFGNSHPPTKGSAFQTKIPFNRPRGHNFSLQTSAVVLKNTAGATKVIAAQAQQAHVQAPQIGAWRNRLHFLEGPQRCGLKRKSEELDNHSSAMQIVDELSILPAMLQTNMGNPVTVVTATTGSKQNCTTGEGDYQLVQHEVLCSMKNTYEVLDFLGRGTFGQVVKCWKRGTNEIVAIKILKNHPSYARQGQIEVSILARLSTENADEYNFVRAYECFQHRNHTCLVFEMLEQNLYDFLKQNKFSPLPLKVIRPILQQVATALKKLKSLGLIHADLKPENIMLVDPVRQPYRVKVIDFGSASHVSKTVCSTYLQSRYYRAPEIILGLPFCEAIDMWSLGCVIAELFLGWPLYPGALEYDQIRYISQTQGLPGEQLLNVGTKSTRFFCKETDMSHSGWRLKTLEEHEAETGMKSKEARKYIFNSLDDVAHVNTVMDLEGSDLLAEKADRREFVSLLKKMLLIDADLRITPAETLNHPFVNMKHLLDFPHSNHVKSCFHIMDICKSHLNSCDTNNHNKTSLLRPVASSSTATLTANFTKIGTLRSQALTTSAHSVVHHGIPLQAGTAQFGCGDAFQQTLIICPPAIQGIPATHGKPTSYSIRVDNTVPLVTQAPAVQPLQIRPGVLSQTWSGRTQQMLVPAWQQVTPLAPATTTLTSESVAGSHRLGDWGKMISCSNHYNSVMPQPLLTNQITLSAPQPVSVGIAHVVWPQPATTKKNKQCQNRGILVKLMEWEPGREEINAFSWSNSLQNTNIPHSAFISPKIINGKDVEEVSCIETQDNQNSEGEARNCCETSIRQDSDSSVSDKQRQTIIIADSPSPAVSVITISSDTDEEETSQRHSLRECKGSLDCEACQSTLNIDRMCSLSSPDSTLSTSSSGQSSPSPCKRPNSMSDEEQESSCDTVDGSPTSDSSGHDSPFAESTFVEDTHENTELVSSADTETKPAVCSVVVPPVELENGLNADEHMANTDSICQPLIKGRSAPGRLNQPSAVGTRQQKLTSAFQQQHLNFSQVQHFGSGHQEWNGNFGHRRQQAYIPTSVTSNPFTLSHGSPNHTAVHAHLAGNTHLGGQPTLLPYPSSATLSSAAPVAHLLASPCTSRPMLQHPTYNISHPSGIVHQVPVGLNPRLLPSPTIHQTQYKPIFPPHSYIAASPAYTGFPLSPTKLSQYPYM
Test: radiometric filter-binding kinase assay, Kinase HotSpot
Conditions: compound 0.5 µM; ATP 10 µM
Each entry below lists one item and its recorded residual activity value.
Your answer should be a plain number; it is taken to be in %.

line-notation	unit-of-measurement	residual activity
Cn1nc2c3c(cccc31)C(=O)c1ccccc1-2	%	113
CC(C)c1nn(-c2c(Cl)cccc2Cl)c2nc(Cc3ccc(OCCO)cc3)nc(O)c12	%	99
O=C1Nc2ccccc2/C1=C1\Nc2ccccc2\C1=N/O	%	89.2

IN: Any idea what its residual activity is? The compound is CCN(CC)CCCCN1c2ccccc2Oc2ccc(Cl)cc21
OUT: 94.2

IN: Request: Cn1cnc2cc3c(Nc4cccc(Br)c4)ncnc3cc21
OUT: 107

IN: Request: CC(=O)O/N=C1\C(=C2\C(=O)Nc3cc(Br)ccc32)Nc2ccccc21
OUT: 76.7

IN: Request: O=C1Cc2c([nH]c3ccc(Br)cc23)-c2ccccc2N1
OUT: 109

---

Molecular target: BRAF (human)
Assay: radiometric filter-binding kinase assay, Kinase HotSpot
Settings: compound 0.5 µM; ATP 10 µM
observable: residual activity

Below are worked cases with known answers.
line-notation	residual activity
CC(C)[C@H](CO)Nc1nc(Nc2cc(N)cc(Cl)c2)c2ncn(C(C)C)c2n1	97.5%
COc1ccc(CNC(=O)Nc2ncc([N+](=O)[O-])s2)cc1	93.4%
O=C(Nc1cccc(Nc2cc(Nc3cccc(C(F)(F)F)c3)ncn2)c1)C1CC1	96.8%
COc1cc2ncnc(N3CCN(C(=O)Nc4ccc(Oc5ccccc5)cc4)CC3)c2cc1OC	92.6%
O=C(CCCc1ccc(-c2ccccc2F)cc1)Nc1ccc(O)cc1	93%

IN: Any idea what its residual activity is? The molecule is CCn1cnc2c(Nc3cccc(Cl)c3)nc(N[C@@H]3CCCC[C@@H]3N)nc21
OUT: 93%

IN: Request: COc1ccc(OC)c2c(=S)c3ccccc3[nH]c12
OUT: 88.5%

IN: Request: O=C1NC(=O)/C(=C\c2ccc3nccnc3c2)S1
OUT: 95.1%

IN: Request: CCN(CC)CCCCN1c2ccccc2Oc2ccc(Cl)cc21
OUT: 98.8%

IN: Request: COc1cc2ncc(-c3ccccc3)nc2cc1OC
OUT: 93.2%

IN: Request: Cn1sc(=O)n(Cc2ccccc2)c1=O
OUT: 98.1%

IN: Request: Cn1cnc2cc3c(Nc4cccc(Br)c4)ncnc3cc21
OUT: 94.2%

IN: Request: CN(C)C[C@H]1CCn2c(c(C3=C(c4cn(C)c5ccccc45)C(=O)NC3=O)c3ccccc32)C1
OUT: 95.2%

IN: Request: Nc1nccc(-c2c(-c3ccc(F)cc3)ncn2C2CCNCC2)n1
OUT: 103%

IN: Request: Nc1nnc2[nH]c3ccccc3nc1-2
OUT: 102%

IN: Request: O=C1NC(=O)C(c2c[nH]c3ccccc23)=C1c1c[nH]c2ccccc12
OUT: 101%

IN: Request: O=C1Nc2ccccc2/C1=C1\Nc2ccccc2\C1=N/O
OUT: 105%

IN: Request: O=C1Cc2c([nH]c3ccc(Br)cc23)-c2ccccc2N1
OUT: 97.7%

Origin of the recorded values: the kinase profiling compilation of Christmann-Franck et al. (2016)
